# Test system: HT-29
# experiment.notes: Cytotoxicity against human HT-29 cells assessed as reduction in cell viability by MTT assay
# Assay type: functional, cell-based
metric.name: IC50

get_value(item= "Cn1cc(-c2ccnc(Nc3ccc(C(=O)NCCCCCCC(=O)NO)cc3)n2)c2ccccc21" , readout=IC50) returns 0.79 µM
